Values compiled from ChEMBL document CHEMBL1201862.

# Tested on: OVCAR-4
# assay_remarks: NCI tumour cell line growth inhibition, 48 h
Activity calls are given as the source filed them. Cut-off read from the data, not from the text of the source: active = GI50 up to about 1.1 µM and inactive = higher. Where a SMILES comes first, the peptide text is derived from it. The star is where a group is joined. OSu = O=C1CCC(=O)N1O*; OBn = c1ccc(CO*)cc1; Bn = c1ccc(C*)cc1
observation_type: GI50

Ask: Return reported GI50 for target or system OVCAR-4, item O=C(O)CCC(=O)Nc1ccc2ccccc2c1 .
Result: > 100 µM (inactive)

Ask: Report GI50 from OVCAR-4 testing of CC(C)CC(NC(=O)C(COc1ccc([N+](=O)[O-])cc1)Cc1ccccc1)C(=O)Nc1ccccc1 (stereo not given)
Result: 2.35 µM (inactive)

Ask: Param request: GI50 | system OVCAR-4 | item O=C1NNC2(C(=O)N1)c1ccccc1-c1ccccc12
Result: > 10 µM (inactive)

Ask: Quote OVCAR-4 GI50 for entry CCN(CC)CCn1c(C(C)(C)C)nc2ccccc21 .
Result: > 100 µM (inactive)

Ask: Write down the reported GI50 (system: OVCAR-4) of O=C1C(Cl)=C(Cl)C(=O)N1c1ccccc1Cl
Result: > 100 µM (inactive)

Ask: Fill in GI50 for CC(C)CC(NC(=O)C(N)CCC(=O)OCc1ccccc1)C(=O)NC(COCc1ccccc1)C(=O)NC(Cc1ccccc1)C(=O)ON1C(=O)CCC1=O (stereo not given) (H-E(OBn)LS(Bn)F-OSu; configuration not given here) tested with OVCAR-4.
Result: 27.8 µM (inactive)

Ask: Report GI50 under test system OVCAR-4 for O=c1oc2cc(O)ccc2c2[nH]c3cc(O)ccc3c12 .
Result: 37.4 µM (inactive)

Ask: Tell me its GI50 on OVCAR-4: C/C=C\C(CC(=O)O)CC(=O)NCCC1CN(S(=O)(=O)C(F)(F)F)c2ccccc21 (stereo not given)
Result: > 100 µM (inactive)

Ask: Provide OVCAR-4 GI50 reading for CC1=NN(C(=O)c2ccccc2O)C(=O)/C1=C/c1ccco1 .
Result: 3.46 µM (inactive)

Ask: # lookup: OVCAR-4 GI50, key = Cc1c(-c2coc(-c3ccccc3)n2)c(=O)n(-c2ccccc2)n1C
Result: > 100 µM (inactive)

====

# System: A549
# assay_remarks: NCI tumour cell line growth inhibition, 48 h
Active and inactive are the calls of the source. No stated cut-off is given here; in the data, active = GI50 up to about 1.1 µM and inactive = higher.
One label from this list, please: active, inactive

Ask: // return assay outcome for CCn1c2c(c3ccccc31)C(c1ccccc1)CC1C(=O)N(c3ccccc3)C(=O)C21 (stereo not given)
Result: inactive

Ask: Hi, sorry to bother you, what did the test record for COC(=O)[C@@H](O)[C@](O)(CCC(C)C)C(=O)O[C@@H]1C(OC)=C[C@]23CCCN2CCc2cc4c(cc2[C@H]13)OCO4 ?
Result: active

Ask: In this assay, the call recorded for CN(C(=O)C12C3C4C1C1C2C3C41C#N)C(C)(C)C (stereo not given) was what?
Result: inactive

Ask: State the result this test recorded for CN1CCc2c1nc(-c1ccc([N+](=O)[O-])cc1)c1c2N(C)CC1 .
Result: inactive

Ask: Which outcome was entered for the compound C=C1C(=O)O[C@H]2C/C(C)=C/CC[C@@]3(C)O[C@](C)(CC[C@@H]3I)[C@@H](I)C[C@@H]12 in this test?
Result: inactive

Ask: Would you mind telling me which call this test gave Cc1ccc(C(=O)N2CCCCC2)cc1/N=N/N(C)C ?
Result: inactive

Ask: # lookup: test call for CN(C)CCN(C)P12(Oc3ccccc3O1)Oc1c(Cl)c(Cl)c(Cl)c(Cl)c1O2
Result: inactive

Ask: Which outcome was assigned to O=C1C=C/C(=N\c2ccc3c(c2)C(Br)c2ccccc2-3)O1 (stereo not given) in this test?
Result: inactive

Ask: Short answer needed: outcome of this test for CC(=O)O[C@H]1C(=O)[C@@]2(C)C(C(OC(=O)c3ccccc3)[C@]3(O)CC(OC(=O)C(O)C(NC(=O)c4cccc(Cl)c4)c4ccccc4)C(C)=C1C3(C)C)[C@]1(OC(C)=O)CO[C@@H]1C[C@@H]2O (stereo not given in full) ?
Result: active

Ask: # fetch the recorded call for O=c1ccn(C2OC(CN(O)CCC3C(O)C(CO)OC3n3ccc(=O)[nH]c3=O)C(O)C2O)c(=O)[nH]1 (stereo not given) here
Result: inactive

Ask: Which outcome did this test record for the compound O=C(Nc1ccc([N+](=O)[O-])cc1)C1C(=O)C(=O)N(c2ccc([N+](=O)[O-])cc2)C1=O (stereo not given) ?
Result: inactive

Ask: Per the assay record, what outcome was assigned to COc1cc(/C=C(\OC(C)=O)c2ccc3c(c2)OCO3)cc(OC)c1OC ?
Result: inactive

Ask: Record request — test call for CCOC(=O)C(NC(=O)c1cccc(Cl)c1)(Nc1cccc(C)c1)C(F)(F)F (stereo not given)
Result: inactive

Ask: Recorded test outcome, item Cc1ccc(S(=O)(=O)NC(=O)Nc2ccc(C(=O)O)c(O)c2)cc1
Result: inactive

Ask: Hi, do you know how O=C1c2ccccc2-c2ccc(N(Cc3ccc(Br)cc3)Cc3ccc(Br)cc3)cc21 came out in this test?
Result: inactive

Ask: Would you mind telling me which call this test gave COc1ccc(NC(=S)c2ccoc2C)cc1CC(=O)OC(C)C ?
Result: inactive

Ask: Please state the recorded outcome for this compound: CCOC(=O)C1C(=O)CC(=O)C2CCCCC21 (stereo not given)
Result: inactive

Ask: # lookup: test call for COC(=O)c1cc2c(c3c1CC(Cc1ccccc1)C3=O)CCC2 (stereo not given)
Result: inactive

Ask: Assay outcome for O=C(O)C(Cc1c[nH]c2ccccc12)N1C(=O)c2ccccc2C1=O (stereo not given) : what was it?
Result: inactive

Ask: Dear colleague, could you share the recorded outcome for C/C(CC(=O)Nc1cccc(Cl)c1C)=N\N=C(N)N when you have a moment?
Result: inactive

====

# Test system: SK-MEL-2
# assay_remarks: NCI tumour cell line growth inhibition, 48 h
Activity calls are given as the source filed them. Cut-off read from the data, not from the text of the source: active = GI50 up to about 1.1 µM and inactive = higher. Starred links: 1 amine or outer side, 2 acyl side, 3 side chain; linkers in the order of their positions; H or OH if unused. Non-standard residues stand in square brackets, D forms with d. Residues, ends and D or L forms follow the SMILES beside them. X4 = C[C@H](N[*:1])C(=O)C(C)(C)C(=O)[*:2]; Hmpa(2S,3S) = CC[C@H](C)[C@H](O)C(=O)O; NMeY = CN[C@@H](Cc1ccc(O)cc1)C(=O)O; NMeL = CN[C@@H](CC(C)C)C(=O)O; NMeV = CN[C@H](C(=O)O)C(C)C; βAla = NCCC(=O)O
observation_type: GI50

Ask: Tell us which GI50 value is on record for O=P1(C(O)/C=C/c2ccccc2)N(Cc2ccccc2)[C@H](c2ccccc2)[C@@H](c2ccccc2)N1Cc1ccccc1 (stereo partly drawn)
Result: 14.1 µM (inactive)

Ask: Respond only with GI50 recorded for CC[C@H](C)[C@@H]1OC(=O)CCNC(=O)[C@@H](C)NC(=O)C(C)(C)C(=O)[C@H](C)NC(=O)[C@H](Cc2ccc(OC)cc2)N(C)C(=O)[C@H](C(C)C)N(C)C(=O)CNC(=O)[C@H](CC(C)C)N(C)C(=O)CNC1=O (cyclo(G[NMeL]G[NMeV][NMeY](Me)[X4][dA][βAla][Hmpa(2S,3S)]))
Result: 0.222 µM (active)

Ask: Please give the documented GI50 of c1ccc(-c2cc(-c3ccccc3)nc(-c3ccncc3)c2)cc1
Result: > 100 µM (inactive)

Ask: Respond only with GI50 recorded for COc1ccc(/N=N/C(=O)NC(CC(C)C)C(=O)NCC(=O)O)cc1 (stereo not drawn)
Result: > 18.4 µM (inactive)

Ask: Please give the documented GI50 of Cc1c(C#N)c(=N)oc2ccccc12
Result: 84.1 µM (inactive)

Ask: Provide GI50 value for the following compound: CC1C=CC(C(N)C(=O)O)O1 (stereo not drawn)
Result: > 100 µM (inactive)

Ask: Input CC1(C)C(O)C[C@]23CCC[C@](C)(C[C@@H](O)C12)C3 (stereo partly drawn) , output reported GI50.
Result: > 100 µM (inactive)

Ask: Entry C=C1C(=O)O[C@H]2C/C(C)=C/CC[C@@]3(C)O[C@](C)(CC[C@@H]3I)[C@@H](I)C[C@@H]12 needs its GI50 filled in; supply it.
Result: 9.02 µM (inactive)

====

# System: KM12
# assay_remarks: NCI tumour cell line growth inhibition, 48 h
Active and inactive are the calls of the source. Rule as the data show it: active = GI50 up to about 1.1 µM and inactive = higher.
Allowed answers: active, inactive

Ask: Which outcome was assigned to CN1CCOC(C(NC(=O)c2ccccc2)c2ccccc2)C1=O (stereo unspecified) in this test?
Result: inactive

Ask: Dear all, I need the recorded test outcome for O=C1N[C@@H]2c3c(Br)sc(Br)c3C(=O)[C@@H]2N1 , thank you.
Result: inactive

Ask: I'd appreciate the recorded outcome for COC(=O)[C@]12CSC[C@H]1C[C@H](c1ccc(N(C)C)cc1)N2 from this test.
Result: inactive

Ask: State the result this test recorded for COc1cc2oc(=O)ccc2cc1CC=C(C)C [SUBEROSIN] .
Result: inactive

Ask: Dear all, I need the recorded test outcome for COc1cccc(NC(=O)CC(=O)Nc2cccc(OC)c2)c1 , thank you.
Result: inactive

Ask: Which result was noted for this compound in the test: O=C(CSc1nc2ccc(I)cc2c(=O)n1Cc1ccccc1)Nc1ccc(Br)cc1
Result: inactive

Ask: GET /call?item= Cc1ccc(/C=c2\c(=O)[nH]c3nc4ccccc4c(=O)n23)cc1 returns the recorded outcome of this test.
Result: inactive

Ask: How did this test come out for CCOC(=O)CNC1=NNS(=O)(=O)c2ccccc21 ?
Result: inactive

Ask: Recorded call for C[C@H](NC(=O)CNC(=O)CCCCCC(=O)NCC(=O)N[C@@H](C)C(=O)OCc1ccccc1)C(=O)OCc1ccccc1 ?
Result: inactive

Ask: Record lookup: outcome of this test for FC(F)(F)c1cccc2ns[s+]c12 ?
Result: inactive

Ask: Returns: the outcome recorded for NC(=O)C(=O)N/N=C1/c2ccccc2CC1C1(O)C(=O)Nc2c(Cl)cc(Cl)cc21 (stereo unspecified) in this assay.
Result: inactive

Ask: Entry CCn1c2c(c3ccccc31)C(c1ccccc1)CC1C(=O)N(c3ccccc3)C(=O)C21 (stereo unspecified) : call = ?
Result: inactive

Ask: What call does the record list for COC(=O)c1c(C(=O)OC)c2ccccn2c1-c1cc(C)cc2c1C(=O)C=CC2=O ?
Result: inactive

Ask: Entry COC(=O)CCC(C)[C@H]1CCC2C3C(C[C@H](OC(C)=O)[C@@]21C)[C@@]1(C)CCC2(C[C@H]1C[C@H]3OC(C)=O)OOC1(CCC(C(C)(C)C)CC1)OO2 (stereo partly specified) : call = ?
Result: inactive

Ask: Short answer needed: outcome of this test for CCOC(=O)C(NC(=O)c1cccc(Cl)c1)(Nc1cccc(C)c1)C(F)(F)F (stereo unspecified) ?
Result: inactive

Ask: Dear colleague, could you share the recorded outcome for Oc1cc(Cc2ccccc2)c(Cc2ccccc2)cc1O when you have a moment?
Result: inactive

Ask: Identify the outcome logged in this assay for the compound shown: COC(=O)Nc1nc2cc(NC(=O)c3cccs3)ccc2[nH]1
Result: inactive

Ask: What classification did CCOC(OCC)[C@@H]1C[C@@H]2N(O[C@H](OC3CCCC3(c3ccccc3)c3ccccc3)[C@H](OC(C)=O)[C@@]2(CC)Cc2ccc(OC)c(OC)c2)O1 (stereo partly specified) end up with in this test?
Result: inactive

Ask: Field: outcome | Entry: O=C(O)CCC(N/N=N/c1ccc(-c2nc3ccccc3[nH]2)cc1)C(=O)O (stereo unspecified)
Result: inactive

Ask: Could you kindly confirm the outcome this assay logged for CCOc1ccc(OP2(=O)NC(=O)C=C(C)N2)cc1 (stereo unspecified) ?
Result: inactive

Ask: How was COc1cc(N(CCC#N)CCC#N)ccc1C(=N/NC(=O)c1cc(Br)ccc1O)/N=N/c1ccccc1 classified in this test?
Result: inactive

Ask: For this compound, state the assay outcome: C1=C2C3=[N+](CCCC3)CC2Cc2ccsc21 (stereo unspecified)
Result: inactive

Ask: Which outcome was entered for the compound CCn1c(SCC(=O)NNC(=S)NC)nc2ccccc2c1=O in this test?
Result: inactive

Ask: Hey, what did the test say about Nc1ccc2nc(Nc3ccc(Cl)c(Cl)c3)cnc2c1 ?
Result: inactive

Ask: Look up the recorded call for S=C1SCN(C2CCCCCCCCCCC2)CN1C1CCCCCCCCCCC1 in this test.
Result: inactive

Ask: I'd appreciate the recorded outcome for COc1cc2cc(C(=O)N3CC(CCl)c4c3cc(N)c3ccccc43)[nH]c2c(OC)c1OC (stereo unspecified) from this test.
Result: active

Ask: I would be grateful if you could indicate the recorded call for C/N=c1\sc2c(n1C)C(=O)c1ccccc1C2=O .
Result: inactive

Ask: Outcome logged for O=P1(C(O)/C=C/c2ccccc2)N(Cc2ccccc2)[C@H](c2ccccc2)[C@@H](c2ccccc2)N1Cc1ccccc1 (stereo partly specified) in this assay:
Result: inactive

Ask: For O=C1C=CC2OC(c3ccccc3)C(O)C2O1 (stereo unspecified) , which call appears in the assay record?
Result: inactive

Ask: In this assay, the call recorded for CC1(C)C(O)C[C@]23CCC[C@](C)(C[C@@H](O)C12)C3 (stereo partly specified) was what?
Result: inactive

Ask: What outcome does the record of this test show for CN1C(c2ccccc2)CC(=NO)CC1c1ccccc1 (stereo unspecified) ?
Result: inactive

Ask: Could you please tell me the result logged for COc1cc2c(cc1C)NC(=O)/C2=C/c1c(Cl)n(C)c2ccccc12 in this assay?
Result: inactive

Ask: Name the outcome recorded for COc1cc(OC)c2c(=O)cc(-c3ccc(OC)c(OC)c3OC)oc2c1 in the assay.
Result: inactive

Ask: Given Clc1cccc(-c2sc(-c3cccs3)cc2Cc2cccs2)c1 , state the outcome it received in this test.
Result: inactive

Ask: # outcome recorded in this test, key = COC(=O)c1c2c(cc3c1CC1(Cc4ccc(C(C)=O)cc4C1)C3)CCC2 (stereo unspecified)
Result: inactive

Ask: # lookup: test call for O=C(NCCCNCCCNC(=O)c1cc(-c2ccccc2)nc2ccccc12)c1cc(-c2ccccc2)nc2ccccc12
Result: inactive

Ask: I'd appreciate the recorded outcome for COCOC1/C=C/CCCCC2=C(C)C=C(C1)O2 (stereo unspecified) from this test.
Result: inactive

Ask: // outcome(item) with item = CC(=O)OC1C=C(C=O)C(O)(C=O)C2(C)CCCC(C)(C)C12 (stereo unspecified)
Result: inactive

Ask: // outcome(item) with item = COc1cc(/C=C(\OC(C)=O)c2ccc3c(c2)OCO3)cc(OC)c1OC
Result: inactive

Ask: Look up the recorded call for COC(=O)[C@H](Cc1c[nH]c2ccccc12)NP(=O)(O)OC[C@H]1O[C@@H](n2cc(C)c(=O)[nH]c2=O)C[C@@H]1N=[N+]=[N-] in this test.
Result: inactive

Ask: Record lookup: outcome of this test for Cc1ccc(S[C@@](C=O)(NC(=O)OCc2ccccc2)C(F)(F)F)cc1 ?
Result: inactive
